src = PubChem BioAssay (NCI)

Tested on: HCC-2998 colon
Assay: NCI tumour cell line growth inhibition, 48 h
Provide the recorded TGI for the entries that follow.

Entry "Cc1ccc(NC(=S)NNC(=S)Nc2ccc(C)cc2)cc1" , TGI reported as > 100 µM

Entry CCOc1cc(Cl)c(C(C)NC(=O)c2cccc(OC)c2)cc1OCC (centres undefined) , TGI reported as > 100 µM

Entry "N#Cc1c(C#N)c(SSc2c(C#N)c(C#N)c(N)n2-c2cccc3ccccc23)n(-c2cccc3ccccc23)c1N" , TGI reported as 85.8 µM

Entry CCCCCOC(=O)Nc1nc(=O)n(C2OC(C)C(O)C2O)cc1F (centres undefined) , TGI reported as > 10000 µM

Entry "CS(=O)(=O)Nc1cc(-c2ccc3ncc(C#N)c(Nc4ccc(F)c(Cl)c4)c3c2)cnc1Cl" , TGI reported as 1.55 µM

Entry COc1cc2cc(C(=O)N3CC(CCl)c4ccc(NO)cc43)[nH]c2c(OC)c1OC (centres undefined) , TGI reported as 1.07 µM

Entry "COC(=O)c1cc(O)ccc1O" , TGI reported as > 100 µM

Entry CC(=O)N1C(c2[nH]c3ccccc3c2Cc2ccccc2)CCN1c1ccccc1 (centres undefined) , TGI reported as > 10 µM

Entry Cc1cn(C2CC(O)C(Cn3nncc3Cn3cnc4c(N)ncnc43)O2)c(=O)[nH]c1=O (centres undefined) , TGI reported as > 100 µM
